Data provenance: patent US20100063026A1

- System: M. smegmatis ATCC607
- Assay Procedure: In-vitro anti-bacterial activity against strain M. smegmatis ATCC607
- Run Parameters: 90% inhibitory concentration for bacterial growth; 48 hours, 37° C., Alamar Blue fluorescence
Each record is given Yes if its reported IC90 MSM 1 ATCC607 is strictly below 2 µg/mL. Records at or above 2 µg/mL are given No.

Recorded results for 2 compounds are shown here.
Compound	Discrete Label
COc1nc2ccc(Br)cc2cc1C(c1ccc(Cl)cc1)C(O)(CCCCN1CC2CC1CN2Cc1ccccc1)c1ccc2ccccc2c1 (single isomer, unassigned)	No
COc1nc2ccc(Br)cc2cc1C(c1ccccc1)C(O)(CCCCN1CC2CC1CN2Cc1ccccc1)c1ccc2ccccc2c1 (single isomer, unassigned) [Compound 20]	No

Task item: Find out if reported IC90 MSM 1 ATCC607 for COc1nc2ccc(Br)cc2cc1C(c1ccccc1)C(O)(CCCCNC1CC2CCC1C2)c1ccc2ccccc2c1 (stereo not drawn) [Compound 39] is less than 2 µg/mL
Reply: Yes

Task item: IC90 MSM 1 ATCC607 under 2 µg/mL? Item: COc1nc2ccc(Br)cc2cc1C(c1ccccc1)C(O)(CCCCN1CC2CC1CN2CCc1ccccc1)c1ccc2ccccc2c1 (single isomer, unassigned)
Reply: Yes

Task item: Quick check: IC90 MSM 1 ATCC607 of COc1nc2ccc(Br)cc2cc1C(c1ccccc1)C(O)(CCCCN1CC2CC1CN2Cc1ccccc1)CCc1ccccc1 (single isomer, unassigned) [Compound 12] under 2 µg/mL?
Reply: No

Task item: For COc1nc2ccc(Br)cc2cc1C(c1ccccc1)C(O)(CCCCc1ccccc1)CCCCN1CC2CC1CN2Cc1ccccc1 (single isomer, unassigned) , is the recorded IC90 MSM 1 ATCC607 below the cut-off of 2 µg/mL?
Reply: Yes

Task item: Lab note: IC90 MSM 1 ATCC607 threshold 2 µg/mL. Does this compound come in strictly under it? COc1nc2ccc(Br)cc2cc1C(c1ccccc1)C(O)(CCCCN1CCN(C2CCN(Cc3ccccc3)C2)CC1)c1ccc2ccccc2c1 (single isomer, unassigned) [Compound 30b]
Reply: No

Task item: Is it true that IC90 MSM 1 ATCC607 reported for COc1nc2ccc(Br)cc2cc1C(c1ccccc1)C(O)(CCCCN1CCN(C2CCN(Cc3ccccc3)C2)CC1)c1ccc2ccccc2c1 (single isomer, unassigned) [Compound 31] is less than 2 µg/mL?
Reply: No

Task item: Does the reported IC90 MSM 1 ATCC607 of the following compound sit strictly below 2 µg/mL? COc1nc2ccc(Br)cc2cc1C(c1ccccc1)C(O)(CCCCN1CC2CC1CN2Cc1ccccc1)CCc1ccccc1 (single isomer, unassigned) [Compound 13]
Reply: No

Task item: IC90 MSM 1 ATCC607 strictly < 2 µg/mL for this compound? COc1nc2ccc(Br)cc2cc1C(c1ccccc1)C(O)(CCCCCN1CCCN(C)CC1)c1ccc2ccccc2c1 (single isomer, unassigned)
Reply: No

Task item: Determine if COc1nc2ccc(Br)cc2cc1C(c1ccccc1)C(O)(CCCCN1CC2CC1CN2Cc1ccccc1)c1ccc2ccccc2c1 (stereo not drawn) [Compound 23] shows IC90 MSM 1 ATCC607 strictly lower than 2 µg/mL.
Reply: Yes
